Examples of binders with documented 6-keto Prostaglandin F1α release, Maximum Inhibition (% Inhibition), N = 2 (333 nM) follow.
Molecular target: human KDR (human, UniProt P35968 20-1356)
Sequence (P35968 20-1356): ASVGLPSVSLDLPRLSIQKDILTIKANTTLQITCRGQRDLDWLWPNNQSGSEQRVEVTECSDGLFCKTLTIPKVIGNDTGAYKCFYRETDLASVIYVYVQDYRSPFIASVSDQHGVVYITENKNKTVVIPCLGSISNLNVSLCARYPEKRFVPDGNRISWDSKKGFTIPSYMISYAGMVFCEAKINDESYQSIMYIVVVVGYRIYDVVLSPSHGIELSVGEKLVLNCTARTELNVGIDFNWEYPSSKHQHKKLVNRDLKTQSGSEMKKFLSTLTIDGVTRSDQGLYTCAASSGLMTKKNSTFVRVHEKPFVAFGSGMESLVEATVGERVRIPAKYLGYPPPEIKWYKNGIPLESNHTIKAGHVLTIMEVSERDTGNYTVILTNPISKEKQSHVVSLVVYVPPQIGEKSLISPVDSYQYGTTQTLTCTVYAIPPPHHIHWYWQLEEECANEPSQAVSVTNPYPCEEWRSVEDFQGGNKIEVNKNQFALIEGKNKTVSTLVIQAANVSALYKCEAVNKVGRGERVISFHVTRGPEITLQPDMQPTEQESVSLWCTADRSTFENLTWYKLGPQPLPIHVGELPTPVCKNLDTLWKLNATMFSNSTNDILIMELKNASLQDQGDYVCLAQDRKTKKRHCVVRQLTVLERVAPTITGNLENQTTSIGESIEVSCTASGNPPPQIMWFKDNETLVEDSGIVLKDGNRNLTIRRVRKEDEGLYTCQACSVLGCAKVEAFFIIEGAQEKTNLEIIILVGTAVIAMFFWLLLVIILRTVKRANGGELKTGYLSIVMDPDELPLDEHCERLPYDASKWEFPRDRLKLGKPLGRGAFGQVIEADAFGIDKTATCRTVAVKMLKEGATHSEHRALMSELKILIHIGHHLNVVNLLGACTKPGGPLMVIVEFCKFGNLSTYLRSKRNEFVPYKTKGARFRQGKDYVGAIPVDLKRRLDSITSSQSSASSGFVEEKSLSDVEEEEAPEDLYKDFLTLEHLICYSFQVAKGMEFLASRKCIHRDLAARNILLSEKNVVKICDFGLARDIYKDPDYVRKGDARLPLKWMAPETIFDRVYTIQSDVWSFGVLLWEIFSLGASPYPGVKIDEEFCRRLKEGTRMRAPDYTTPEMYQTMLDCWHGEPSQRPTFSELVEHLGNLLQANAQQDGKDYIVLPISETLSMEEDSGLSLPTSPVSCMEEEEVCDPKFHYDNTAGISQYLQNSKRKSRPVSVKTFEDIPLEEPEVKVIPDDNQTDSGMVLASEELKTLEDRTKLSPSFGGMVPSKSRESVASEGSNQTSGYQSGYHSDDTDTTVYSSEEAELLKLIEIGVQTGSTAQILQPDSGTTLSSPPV
Assay: cell-based or functional assay
measurement-name: 6-keto Prostaglandin F1α release, Maximum Inhibition (% Inhibition), N = 2 (333 nM) (%)

binder	value-observed
27A3 (antibody, V domains shown, Fully human monoclonal antibody from a XenoMouse hybridoma (IgG2 or IgG4 strain), purified) VH: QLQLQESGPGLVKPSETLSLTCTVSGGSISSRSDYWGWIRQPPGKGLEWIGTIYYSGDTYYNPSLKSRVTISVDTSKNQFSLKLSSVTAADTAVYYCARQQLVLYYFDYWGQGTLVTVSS VL: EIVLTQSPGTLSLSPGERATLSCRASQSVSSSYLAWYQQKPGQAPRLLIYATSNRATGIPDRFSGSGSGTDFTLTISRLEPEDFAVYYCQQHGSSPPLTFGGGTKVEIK	49
33C3 (antibody, V domains shown, Fully human monoclonal antibody from a XenoMouse hybridoma (IgG2 or IgG4 strain), purified) VH: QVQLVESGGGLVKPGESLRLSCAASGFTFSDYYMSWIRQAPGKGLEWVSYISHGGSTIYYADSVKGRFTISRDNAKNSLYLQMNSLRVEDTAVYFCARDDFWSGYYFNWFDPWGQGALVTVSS VL: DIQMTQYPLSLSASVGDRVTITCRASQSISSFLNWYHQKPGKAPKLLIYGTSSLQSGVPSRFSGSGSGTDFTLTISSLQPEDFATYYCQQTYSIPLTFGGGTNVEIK	94
31E11 (antibody, V domains shown, Fully human monoclonal antibody from a XenoMouse hybridoma (IgG2 or IgG4 strain), purified) VH: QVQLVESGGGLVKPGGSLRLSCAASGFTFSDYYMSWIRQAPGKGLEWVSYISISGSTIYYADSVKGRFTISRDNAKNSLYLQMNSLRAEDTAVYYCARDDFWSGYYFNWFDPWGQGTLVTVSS VL: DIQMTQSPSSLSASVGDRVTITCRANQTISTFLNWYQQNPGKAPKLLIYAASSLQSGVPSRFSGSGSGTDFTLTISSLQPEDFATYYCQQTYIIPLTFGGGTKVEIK	108
